Each recorded value in this set is attributed to patent US9527807B2.

Measurement Target: AMPA receptor (human GluR1 flip/stargazin expressed in CHO-K1 cells) (Homo sapiens)
Construct: expressed in transfected cells; host or cells: CHO-K1
Sequence (P42261 19-906 isoform P42261-2 limits assumed): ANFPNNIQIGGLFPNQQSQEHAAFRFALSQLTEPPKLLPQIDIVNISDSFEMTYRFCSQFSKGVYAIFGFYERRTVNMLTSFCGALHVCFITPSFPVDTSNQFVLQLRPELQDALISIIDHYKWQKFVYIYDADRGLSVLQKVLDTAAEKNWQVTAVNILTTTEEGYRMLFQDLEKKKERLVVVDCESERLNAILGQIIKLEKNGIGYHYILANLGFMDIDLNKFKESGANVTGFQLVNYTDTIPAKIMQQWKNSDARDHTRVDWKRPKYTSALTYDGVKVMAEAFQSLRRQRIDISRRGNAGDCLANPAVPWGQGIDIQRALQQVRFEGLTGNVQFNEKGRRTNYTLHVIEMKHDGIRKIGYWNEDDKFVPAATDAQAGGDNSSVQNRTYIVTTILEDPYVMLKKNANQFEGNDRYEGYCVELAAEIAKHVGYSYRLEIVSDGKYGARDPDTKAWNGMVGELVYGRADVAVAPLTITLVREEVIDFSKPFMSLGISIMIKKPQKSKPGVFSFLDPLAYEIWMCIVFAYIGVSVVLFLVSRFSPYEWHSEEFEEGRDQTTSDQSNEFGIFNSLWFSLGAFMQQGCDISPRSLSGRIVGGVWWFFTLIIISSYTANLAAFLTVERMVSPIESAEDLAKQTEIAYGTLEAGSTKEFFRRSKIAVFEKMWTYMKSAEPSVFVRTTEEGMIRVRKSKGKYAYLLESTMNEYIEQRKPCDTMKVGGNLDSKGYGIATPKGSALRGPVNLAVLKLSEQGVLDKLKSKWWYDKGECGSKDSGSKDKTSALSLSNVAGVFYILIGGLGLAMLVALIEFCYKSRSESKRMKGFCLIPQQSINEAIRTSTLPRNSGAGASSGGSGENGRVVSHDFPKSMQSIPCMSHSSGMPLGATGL
Sequence (Q9Y698 whole entry partner): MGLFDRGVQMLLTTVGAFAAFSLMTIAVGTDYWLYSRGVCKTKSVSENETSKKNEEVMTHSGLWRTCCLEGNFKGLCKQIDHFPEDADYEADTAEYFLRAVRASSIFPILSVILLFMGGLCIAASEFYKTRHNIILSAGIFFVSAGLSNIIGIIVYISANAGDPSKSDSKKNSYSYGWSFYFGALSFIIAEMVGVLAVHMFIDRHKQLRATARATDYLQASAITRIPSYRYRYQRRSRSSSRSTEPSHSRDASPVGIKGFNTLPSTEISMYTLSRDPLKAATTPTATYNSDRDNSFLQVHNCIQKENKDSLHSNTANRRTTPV
Test Details: AMPA receptor function enhancing activity using calcium influx as index
Assay type: cell-based
Applied Conditions: change in fluorescence level in 3 min, 100% = 3 mM glutamic acid + 300 μM cyclothiazide, 0% = 3 mM glutamic acid only
Quantity Measured: activity (%)

Examples with answers:
{"Compound": "CCS(=O)(=O)N[C@H]1CCOC[C@@H]1COc1ccc(OC(F)F)cc1 (single isomer, unassigned)", "Value Unit": "%", "activity (%)": 81}
{"Compound": "CCS(=O)(=O)N[C@H]1CCC(F)(F)C[C@@H]1COc1ccc(-n2nccc2C)cc1 (relative stereo)", "Value Unit": "%", "activity (%)": 42}
{"Compound": "CCS(=O)(=O)N[C@H]1CCN(C(C)=O)C[C@@H]1COc1ccc(CCC#N)cc1 (relative stereo)", "Value Unit": "%", "activity (%)": 38}

1. CS(=O)(=O)N[C@H]1CCOC[C@@H]1COc1ccc(-n2cc(C(F)(F)F)cn2)cc1
2. CCS(=O)(=O)N[C@H]1CCN(C(C)=O)C[C@@H]1COc1ccc(OC(F)F)cc1 (relative stereo)
QUERY: Hi, I'm comparing two records. Which one has the lower activity (%), 1 or 2 ? // return label of chosen record
RESULT: 2
(2: 46%, 1: 78%)

a. CCS(=O)(=O)N[C@H]1CCOC[C@@H]1COc1ccc(-c2ccc(F)cn2)c(F)c1 (single isomer, unassigned)
b. CCS(=O)(=O)N[C@H]1CCCC[C@@H]1COc1ccc(OC(F)F)cc1 (relative stereo)
QUERY: Hi, I'm comparing two records. Which one has the lower activity (%), a or b ? // return label of chosen record
RESULT: b
